Biological target: VEGF binding to heparin (HS-GAG) (Homo sapiens, UniProt P15692)
Construct: purchased Research and Development Systems
Sequence (P15692 27-191 isoform P15692-4): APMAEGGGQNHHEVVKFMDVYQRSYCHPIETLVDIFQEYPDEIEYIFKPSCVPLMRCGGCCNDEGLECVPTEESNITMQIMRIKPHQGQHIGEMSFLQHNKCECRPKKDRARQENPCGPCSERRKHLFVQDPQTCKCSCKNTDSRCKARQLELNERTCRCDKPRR
Assay: In vitro VEGF to HS-GAG binding assay (ELISA, heparin-BSA coated plate)
Conditions: 30 μM
value.kind: inhibition at 30 µM

Query: Given the molecule CCN1CCc2c(sc(NC(=O)c3cccc(N4C(=O)CCC4=O)c3)c2-c2nc3ccccc3s2)C1 [Compound 17] , what is its reported inhibition at 30 µM?
Result: 77%

Query: Follow-up entry: CCN1CCc2c(sc(NC(=O)c3ccc(Cl)cc3)c2-c2nc3ccccc3s2)C1 [Compound 10]
Result: 71%

Query: Field entry: CN1CCc2c(sc(NC(=O)CN3C(=O)c4ccccc4C3=O)c2-c2nc3ccccc3s2)C1 [Compound 30]
Result: 29%

Query: How about CC(=O)N1CCc2c(sc(NC(=O)c3ccc(C#N)cc3)c2-c2nc3ccccc3s2)C1 [Compound 37] ?
Result: 75%

Query: # iterate: CC(C)N1CCc2c(sc(NC(=O)CCc3ccccc3)c2-c2nc3ccccc3s2)C1 [Compound 18]
Result: 44%

Query: Also O=C(Nc1sc2c(c1-c1nc3ccccc3s1)CCN(Cc1ccccc1)C2)c1cc(Cl)sc1Cl [Compound 22] ?
Result: 39%

Query: // query: CCN1CCc2c(sc(NC(=O)c3cc4cc([N+](=O)[O-])ccc4s3)c2-c2nc3ccccc3s2)C1 [Compound 28]
Result: 35%

Query: Also check CC(C)N1CCc2c(sc(NC(=O)C3CCCCC3)c2-c2nc3ccccc3s2)C1 [Compound 26]
Result: 36%

Query: Also CC(C)Oc1ccc(C(=O)Nc2sc3c(c2-c2nc4ccccc4s2)CCN(C)C3)cc1 [Compound 19] , if possible.
Result: 49%

Query: Please do the same for CN1CCc2c(sc(NC(=O)c3cc4ccccc4o3)c2-c2nc3ccccc3s2)C1 [Compound 5] as well.
Result: 81%

Query: Now consider CC(=O)c1ccc(C(=O)Nc2sc3c(c2-c2nc4ccccc4s2)CCN(Cc2ccccc2)C3)cc1 [Compound 8] .
Result: 82%

Query: // repeat for CCN1CCc2c(sc(NC(=O)c3cc(OC)c(OC)c(OC)c3)c2-c2nc3ccccc3s2)C1 [Compound 14] and report
Result: 73%

Query: Record: CN1CCc2c(sc(NC(=O)c3cccs3)c2-c2nc3ccccc3s2)C1 [Compound 7]
Result: 70%

Query: And the next one, CC(=O)N1CCc2c(sc(NC(=O)c3cccc(Br)c3)c2-c2nc3ccccc3s2)C1 [Compound 36] ?
Result: 31%

Query: Also check CN1CCc2c(sc(NC(=O)c3cc4c(ccc5ccccc54)oc3=O)c2-c2nc3ccccc3s2)C1 [Compound 32]
Result: 31%

Query: Same question, CCN1CCc2c(sc(NC(=O)c3ccccc3)c2-c2nc3ccccc3s2)C1 [Compound 9] this time
Result: 70%
